From: patent US8927730B2

# target_or_test_system: bovine eNOS (Bos taurus (Bovine), UniProt P29473)
outcome_measure: pKi
# pKi: negative log10 of molar concentration; output just the value

Exam item: Under bovine eNOS (Bos taurus (Bovine), UniProt P29473): pKi value of COc1ccccc1CNCCO[C@@H]1CNC[C@@H]1Cc1cc(C)cc(N)n1 [Compound 3b] ?
Marked response: 4.11

----------
// each record: one item and its pKi for murine iNOS (Mus musculus (Mouse))
# pKi: negative log10 of molar concentration; output just the value

Exam item: Under murine iNOS (Mus musculus (Mouse)): pKi value of "Cc1cc(N)nc(C[C@H]2CNC[C@H]2OCCNCc2ccco2)c1" ?
Marked response: 4.44

---
Exam item: Under murine iNOS (Mus musculus (Mouse)): pKi value of "Cc1cc(N)nc(C[C@H]2CNC[C@H]2OCCNCc2ccccc2F)c1" ?
Marked response: 4.36
